Listed below: IC50 values for each entry.
target: Met kinase (Homo sapiens); assay: Met kinase inhibition, flashplate method (enzyme); assay type: biochemical; set-up: 6His (N); purchased Upstate 14-526; host or cells: Sf21 insect cells (S. frugiperda), baculovirus
Sequence (P08581 25-1390): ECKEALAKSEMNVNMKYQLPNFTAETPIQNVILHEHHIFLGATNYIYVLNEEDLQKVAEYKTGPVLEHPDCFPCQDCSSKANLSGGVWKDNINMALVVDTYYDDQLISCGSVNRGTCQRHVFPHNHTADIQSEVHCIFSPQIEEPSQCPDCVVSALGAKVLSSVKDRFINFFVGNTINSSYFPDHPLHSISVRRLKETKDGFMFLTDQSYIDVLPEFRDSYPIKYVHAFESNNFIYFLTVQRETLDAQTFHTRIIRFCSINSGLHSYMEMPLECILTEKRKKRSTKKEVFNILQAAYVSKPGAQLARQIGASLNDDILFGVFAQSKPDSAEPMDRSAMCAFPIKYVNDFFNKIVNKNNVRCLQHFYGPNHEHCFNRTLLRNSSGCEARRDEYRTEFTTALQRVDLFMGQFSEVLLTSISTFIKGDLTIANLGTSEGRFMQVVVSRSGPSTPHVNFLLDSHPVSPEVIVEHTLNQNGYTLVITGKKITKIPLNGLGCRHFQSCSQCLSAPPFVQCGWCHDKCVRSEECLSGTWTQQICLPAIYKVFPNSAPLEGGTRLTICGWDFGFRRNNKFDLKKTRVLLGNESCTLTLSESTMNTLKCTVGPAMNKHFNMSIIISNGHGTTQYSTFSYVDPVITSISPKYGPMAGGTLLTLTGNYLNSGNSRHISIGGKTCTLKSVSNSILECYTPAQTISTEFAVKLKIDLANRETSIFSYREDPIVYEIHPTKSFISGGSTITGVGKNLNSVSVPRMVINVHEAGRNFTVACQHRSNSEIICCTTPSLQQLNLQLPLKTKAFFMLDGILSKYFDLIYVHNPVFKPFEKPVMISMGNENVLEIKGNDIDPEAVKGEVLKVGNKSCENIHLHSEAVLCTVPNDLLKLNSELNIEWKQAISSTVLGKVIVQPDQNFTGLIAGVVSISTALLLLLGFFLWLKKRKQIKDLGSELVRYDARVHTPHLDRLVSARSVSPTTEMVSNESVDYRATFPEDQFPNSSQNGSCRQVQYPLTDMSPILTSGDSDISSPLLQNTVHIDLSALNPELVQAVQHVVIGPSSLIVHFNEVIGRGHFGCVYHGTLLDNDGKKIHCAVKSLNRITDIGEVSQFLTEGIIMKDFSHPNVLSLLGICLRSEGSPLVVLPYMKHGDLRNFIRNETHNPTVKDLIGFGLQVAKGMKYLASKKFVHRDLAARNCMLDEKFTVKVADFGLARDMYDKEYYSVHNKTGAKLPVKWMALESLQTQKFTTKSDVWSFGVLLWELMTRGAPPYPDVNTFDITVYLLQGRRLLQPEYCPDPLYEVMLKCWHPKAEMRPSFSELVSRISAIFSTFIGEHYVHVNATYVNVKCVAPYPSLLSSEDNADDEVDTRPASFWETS

Worked cases, IC50 given:
| Compound | IC50 |
| --- | --- |
| N#Cc1ccc2[nH]c(-c3cncnc3)c(-c3cccc(Cl)c3)c2n1 [Compound A62] | > 10 µM |
| NC(=O)c1ccc2[nH]c(-c3ccncc3)c(-c3cccc(Cl)c3)c2n1 [Compound A60] | 0.1 to 10 µM |

Qu. Recorded IC50 of N#Cc1ccc2[nH]c(-c3ccncc3)c(-c3cccc(F)c3)c2n1 [Compound A58] , please.
Ans. 0.1 to 10 µM

Qu. What value of IC50 has been recorded for this entry: O=C(NCCN1CCOCC1)c1ccc2[nH]c(-c3ccncc3)c(-c3cccc(Cl)c3)c2n1 [Compound A61]
Ans. > 10 µM

Qu. What does the record list as IC50 for O=C(O)c1ccc2[nH]c(-c3ccncc3)c(-c3cccc(Cl)c3)c2n1 [Compound A59] ?
Ans. 0.1 to 10 µM

Qu. Tell me the measured IC50 of N#Cc1ccc2[nH]c(-c3ccc(F)cc3)c(-c3ccncc3)c2n1 [Compound A20] , please.
Ans. > 10 µM
